test: qHTS assay for MDR1-selective chemotherapeutics: Primary screen using the drug-selected MDR subline cells KB-V1; conditions: KB-V1 MDR cells viability, CellTiter-Glo, 72 h; series mostly up to 46.1 µM; also: nearly all actives have a fitted effect of over 60% in size
The campaign covered roughly 400,000 compounds. About 13,000 (3.2%) were called active. Another 18% or so got no clear call; they are omitted. Calls follow the shape of the dose curve; as a rule, active = well fitted cell-killing curve with a large enough effect; inconclusive = small, poorly fitted or top-dose-only effect, or effect the other way; inactive = flat fitted curve, though single readings scatter. The sample as a whole holds a higher share of actives than the screen did.
Please reply with one of these outcomes: yes (1) (active), no (0) (inactive)

Per the assay record, what outcome was assigned to COc1ccc(OC)c(NC(=O)C2CCCN2S(=O)(=O)c2ccc3c(c2)CC(C)N3C(C)=O)c1 (centres undefined) ?
no (0)

Field entry: COc1ccc(C(=O)NC2CC(C)(C)Cc3c2cnn3-c2ccccc2C)o1 (centres undefined)
yes (1)

Field entry: O=C1NC[C@@H](CCCCN2CCN(CCc3ccc(O)cc3)C(=O)C2=O)N(CC2CCCCC2)C1=O
no (0)

Field entry: CN(C)S(=O)(=O)c1ccc2oc(SCC(=O)Nc3ccccc3F)nc2c1
no (0)

Field entry: CCCNC(=O)C1(C)CCN1C(=O)C1(c2ccccc2)CC1 (centres undefined)
no (0)

Field entry: c1cc(-c2nn[nH]n2)ccc1CN1CCCCC1
no (0)

Field entry: Cc1ccc(C)c(N2CCN(C(=O)CN3C(=O)COc4ccc(S(=O)(=O)N5CCCCCC5)cc43)CC2)c1
no (0)

Field entry: CC1Cc2ccccc2N1C(=O)CSc1nc2ccccc2o1 (centres undefined)
yes (1)

Field entry: CC1CC(C)CN(C(=O)CSc2nnc(CSc3ncccn3)n2C)C1 (centres undefined)
no (0)

Field entry: N=c1c2c3c(sc2ncn1CCCN1CCOCC1)CCCCC3
yes (1)

Field entry: Clc1ccc(-n2nnnc2CN2CCCCC2)cc1Cl
yes (1)

Field entry: CCC(C)NCCOCCOc1ccc(Br)cc1C (centres undefined)
yes (1)

Field entry: Clc1ccc(CN2CCCCCC2)cc1Cl
no (0)

Field entry: CC1(C(=O)NS(=O)(=O)c2cccc(OC(F)F)c2)CCN1C(=O)COc1ccc(Cl)cc1 (centres undefined)
no (0)

Field entry: COc1ccc(-c2nc3ccc(Br)cn3c2Cc2ccc(C)cc2)cc1OC
no (0)

Field entry: CCS(=O)(=O)c1ccc2oc(SCC(=O)N3c4ccccc4CC3C)nc2c1 (centres undefined)
yes (1)

Field entry: COCC1CCCCN1C(=O)c1cc(COc2ccc(C)c(C)c2)on1 (centres undefined)
no (0)

Field entry: CCOCCCNCc1cc(Br)ccc1OCC
no (0)

Field entry: O=C(O)c1ccccc1Cc1ccc(F)c2ccccc12
no (0)

Field entry: CCOC(=O)C1CCN(C(=O)Nc2ccc(C)c(Cl)c2)CC1
no (0)

Field entry: CCN(CC(=O)Nc1ccc(OC)cc1)C(=O)c1ccc(Cl)c(S(=O)(=O)N2CCCC2)c1
no (0)

Field entry: COc1ccc(NC(=O)c2sc(=O)n(Cc3ccc(S(=O)(=O)N(C)C)cc3)c2C)cc1
yes (1)

Field entry: O=C(NCCN1CCOCC1)c1ccc2c(c1)N(Cc1ccc(Cl)cc1)CCS2
no (0)

Field entry: CCN(CC(=O)Nc1ccc(OC)cc1)C(=O)c1ccc(=O)n(Cc2ccccc2)n1
yes (1)

Field entry: Brc1cccc[n+]1Cc1cccc(C[n+]2ccccc2Br)c1
no (0)

Field entry: CC1Cc2ccccc2N1C(=O)Cn1cnc2ccccc2c1=O (centres undefined)
no (0)

Field entry: CCN(CC)CCN(C(=O)c1ccc(S(=O)(=O)N2CCOCC2)cc1)c1nc2cc3c(cc2s1)OCCO3
no (0)

Field entry: CCOC(=O)N1CCC(N(CCOC)C(=O)Nc2ccc(C)c(C)c2)CC1
yes (1)

Field entry: COc1cc(C(=O)NCc2nnc(SCC(=O)c3ccc(Cl)cc3)o2)cc(OC)c1OC
no (0)

Field entry: COc1cccc(-c2nnc(SCC(=O)N3CCC(C)CC3)o2)c1
no (0)

Field entry: CCn1c(CSc2ncccn2)nnc1SCC(=O)N1c2ccccc2CC1C (centres undefined)
yes (1)

Field entry: COc1cc2c(cc1OC)C(C(=O)NCc1ccco1)C1c3ccccc3CCN1C2=O (centres undefined)
yes (1)

Field entry: CCN(CC)CCN(C(=O)c1ccc2c(c1)CCCC2)c1nc2c(OC)cccc2s1
no (0)

Field entry: CCN(CC)C(=O)CSc1nnc(-c2cccc(OC)c2)o1
yes (1)

Field entry: CC(C)(C)C(=O)CSc1nc2ccccc2o1
no (0)

Field entry: N=c1c2c3c(sc2nc2n1CCCCC2)CCCC3
no (0)

Field entry: COc1ccc(S(=O)(=O)N2CCN(CC(=O)N3c4ccccc4CC3C)CC2)cc1OC (centres undefined)
no (0)

Field entry: O=C1NC[C@H](CCCCN2C[C@H](Cc3ccc(O)cc3)N(CCc3ccccc3)C(=O)C2=O)N(CCc2ccccc2)C1=O
no (0)

Field entry: CCOC(=O)CSc1nnc(CNc2ccc(F)cc2)o1
no (0)

Field entry: CC1(C)Cc2ccccc2-c2c[nH]c(=O)n21
no (0)

Field entry: CC1(C(=O)Nc2cccc(Oc3ccccc3)c2)CCN1Cc1ccccc1Cl (centres undefined)
no (0)

Field entry: C[C@@H]1CN([C@H](C)CO)C(=O)CCCn2nncc2CO[C@@H]1CN(C)C(=O)OCc1ccccc1
no (0)

Field entry: Cn1c(SCC(=O)OC2CCCCC2)nnc1-c1ccc(S(=O)(=O)N2CCCC2)cc1
no (0)

Field entry: COc1cccc(CNC(=O)CN2C(=O)CCc3cc(S(=O)(=O)N4CCOCC4)ccc32)c1
no (0)
